molecular target: TEAD1 (Homo sapiens, UniProt P28347); test: Thermal shift assay TEAD1; format: binding
Sequence (P28347 whole entry, species assumed): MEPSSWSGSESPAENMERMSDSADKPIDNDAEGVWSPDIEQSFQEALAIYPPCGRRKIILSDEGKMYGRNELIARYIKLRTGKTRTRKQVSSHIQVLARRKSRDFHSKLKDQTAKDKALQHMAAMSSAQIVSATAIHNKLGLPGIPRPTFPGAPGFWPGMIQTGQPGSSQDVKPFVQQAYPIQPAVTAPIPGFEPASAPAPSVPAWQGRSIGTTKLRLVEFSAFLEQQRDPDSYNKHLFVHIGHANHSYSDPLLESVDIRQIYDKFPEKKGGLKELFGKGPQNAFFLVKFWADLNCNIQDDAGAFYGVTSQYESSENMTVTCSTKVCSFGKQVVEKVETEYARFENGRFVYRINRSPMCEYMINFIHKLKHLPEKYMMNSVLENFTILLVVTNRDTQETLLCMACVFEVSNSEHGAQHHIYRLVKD
metric_name: TEAD1 ΔTm (°C)

Example cases with answers are listed next.
INPUT: Notebook: pull reported TEAD1 ΔTm for TEAD1 (Homo sapiens, UniProt P28347), entry Cn1cc2cc(Oc3ccc(C(F)(F)F)cc3)cc(C3C[C@H]3C(=O)N3CCC[C@@H]3C#N)c2n1 (single isomer, unassigned) [Example 72]
OUTPUT: 3.5

INPUT: Same lookup for Cn1cc2cc(Oc3ccc(C(F)(F)F)cc3)cc(C3C[C@H]3C(=O)N3CCC4(COC4)C3)c2n1 (single isomer, unassigned) [Example 98] , please.
OUTPUT: 7.3

INPUT: Same lookup for CNC(=O)[C@@H]1C[C@H]1c1cc(-c2ccc(C(F)(F)F)cc2)cc2c1cnn2C(F)F (racemic) [Example 32] , please.
OUTPUT: 2.1

A = Cn1cc2cc(Oc3ccc(C(F)(F)F)cc3)cc([C@@H]3C[C@H]3C(=O)NC3(C#N)CC3)c2n1 (single isomer, unassigned) [Example 67]
B = O=C(O)[C@@H]1CC1c1cc(-c2ccc(C(F)(F)F)cc2)cc2scnc12 (mixture of isomers) [Example 14]
INPUT: I would appreciate it if you could say which entry, A or B , has the lower TEAD1 ΔTm value. Your answer should be the label of the entry you select.
OUTPUT: B

P = Cn1cc2cc(Oc3ccc(C(F)(F)F)cc3)cc([C@@H]3C[C@H]3C(=O)N3CCO[C@@H](CO)C3)c2n1 (single isomer, unassigned) [Example 62]
Q = Cn1cc2cc(Oc3cc(F)c(F)c(F)c3)cc([C@@H]3C[C@H]3C(=O)N3C[C@@H]4C[C@H]3C[C@@H]4O)c2n1 (single isomer, unassigned) [Example 138]
INPUT: Endpoint returns whichever of P and Q has the numerically higher TEAD1 ΔTm. Your answer should be the label of the entry you select.
OUTPUT: P
(P: 7.4 °C, Q: 4.2 °C)

A = CC(C)NC(=O)[C@@H]1C[C@H]1c1cc(Oc2ccc(C(F)(F)F)cc2)cc2cn(C)nc12 (single isomer, unassigned) [Example 56a]
B = Cn1cc2cc(Oc3ccc(C(F)(F)F)cc3)cc(C3C[C@H]3C(=O)N3C[C@H]4C[C@@H]3C[C@@H]4O)c2n1 (single isomer, unassigned) [Example 103c]
INPUT: I would appreciate it if you could say which entry, A or B , has the lower TEAD1 ΔTm value. Your answer should be the label of the entry you select.
OUTPUT: A
(A: 5.4 °C, B: 9.2 °C)

a = CN1Cc2cc(-c3ccc(C(F)(F)F)cc3)cc(C3C[C@H]3C(=O)O)c2C1=O (mixture of isomers) [Example 15]
b = Cn1cc2cc(Oc3ccc(C(F)(F)F)cc3)cc([C@@H]3C[C@H]3C(=O)NCCO)c2n1 (single isomer, unassigned) [Example 125]
INPUT: Endpoint returns whichever of a and b has the numerically higher TEAD1 ΔTm. Your answer should be the label of the entry you select.
OUTPUT: b

====

experiment: Pharmacokinetic profile evaluation in mice; format: in vivo, CD-1 mice; settings: CD-1; mouse, oral administration at 10 mg/kg, plasma
metric_name: half-life (h)

Example cases with answers are listed next.
INPUT: If you can, please state the reported half-life value of `CNS(=O)(=O)CCc1cc(-c2ccc(C(F)(F)F)cc2)cc2cn(C)nc12` .
OUTPUT: 2.6

INPUT: Same lookup for Cn1cc2cc(Oc3ccc(C(F)(F)F)cc3)cc([C@@H]3C[C@H]3C(=O)N3CC[C@H](O)[C@@H](O)C3)c2n1 (single isomer, unassigned) [Example 75a] , please.
OUTPUT: 2.3

INPUT: Same lookup for Cn1ncc2c(C3C[C@H]3C(=O)O)cc(Oc3ccc(C(F)(F)F)cc3)cc21 (mixture of isomers) , please.
OUTPUT: 11.2

P = Cn1cc2cc(Oc3ccc(C(F)(F)F)cc3)cc(C3C[C@H]3C(=O)O)c2n1 (mixture of isomers)
Q = Cn1cc2cc(Oc3ccc(C(F)(F)F)cc3)cc(C3C[C@H]3C(=O)N3C[C@@H]4C[C@H]3C[C@@H]4O)c2n1 (single isomer, unassigned) [Example 103f]
INPUT: Endpoint returns whichever of P and Q has the numerically higher half-life. Your answer should be the label of the entry you select.
OUTPUT: P

Values were extracted from patent US12103915B2.
